Target: T1, recombinant biotinylated rat PAR2 extracellular residues 1-75, N-terminal AviTag, C-terminal Flag and poly … (rat, UniProt Q63645 26-75, not fully specified; biotin on the AviTag (enzymatic biotinylation))
T1 construct: range 1-75; not shown: N-terminal AviTag (Avidity LLC); C-terminal Flag and poly Histidine tags
T1 chain (looked up): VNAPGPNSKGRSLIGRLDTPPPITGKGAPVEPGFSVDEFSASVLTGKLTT
Assay: Biacore SPR 25 C, pH 6.0
Recorded koff by entry
# unit: s⁻¹ | format: bare number

Reference set (4 entries):
[
  {
    "Binder": "PaB670048 Fab (Fab, V domains shown, Fab; also called ZZ1KX4-E11) VH: EVQLLESGGGLVQPGGSLRLSCAASGFTFSSYAMNWVRQAPGKGLEWVSTISYSGSLISYADSVKGRFTISRDNSKNTLYLQMNSLRAEDTAVYYCARIHHDPMDHWGQGTLVTVSS VL: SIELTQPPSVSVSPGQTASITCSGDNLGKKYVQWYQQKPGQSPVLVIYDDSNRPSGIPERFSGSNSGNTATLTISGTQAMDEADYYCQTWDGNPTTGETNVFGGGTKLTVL",
    "Unit Of Measurement": "s⁻¹",
    "koff": 0.0205
  },
  {
    "Binder": "PaB670136 Fab (Fab, V domains shown, Fab; also called ZZ1RUF-A01) VH: EVQLLESGGGLVQPGGSLRLSCAASGFTFSSYAMNWVRQAPGKGLEWVSTISYHGHHISYADSHHHRFTISRDNSKNTLYLQMNSLRAEDTAVYYCARIHHDPMDHWGQGTLVTVSS VL: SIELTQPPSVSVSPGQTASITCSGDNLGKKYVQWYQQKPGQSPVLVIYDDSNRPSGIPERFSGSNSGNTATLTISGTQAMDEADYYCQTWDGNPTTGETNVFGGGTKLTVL",
    "Unit Of Measurement": "s⁻¹",
    "koff": 0.0589
  },
  {
    "Binder": "PaB670120 Fab (Fab, V domains shown, Fab; also called ZZ1RUC-C11) VH: EVQLLESGGGLVQPGGSLRLSCAASGFTFSSYAMNWVRQAPGKGLEWVSTISYHGHHISYADSHHHRFTISRDNSKNTLYLQMNSLRAEDTAVYYCARINHDPMDVWGQGTLVTVSS VL: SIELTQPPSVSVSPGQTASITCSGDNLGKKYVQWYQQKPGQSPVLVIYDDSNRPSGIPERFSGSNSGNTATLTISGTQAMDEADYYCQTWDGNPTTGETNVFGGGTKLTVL",
    "Unit Of Measurement": "s⁻¹",
    "koff": 0.281
  },
  {
    "Binder": "PaB670103 Fab (Fab, V domains shown, Fab; also called ZZ1RCX-C09) VH: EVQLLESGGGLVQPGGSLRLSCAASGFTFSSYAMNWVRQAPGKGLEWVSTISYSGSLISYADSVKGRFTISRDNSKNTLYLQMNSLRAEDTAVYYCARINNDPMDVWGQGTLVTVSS VL: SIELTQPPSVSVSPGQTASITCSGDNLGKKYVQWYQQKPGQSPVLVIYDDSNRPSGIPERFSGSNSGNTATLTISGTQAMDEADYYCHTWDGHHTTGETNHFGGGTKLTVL",
    "Unit Of Measurement": "s⁻¹",
    "koff": 0.00542
  }
]

I have this binder here, PaB670129 Fab (Fab, V domains shown, Fab; also called ZZ1RUE-F02) VH: EVQLLESGGGLVQPGGSLRLSCAASGFTFSSYAMNWVRQAPGKGLEWVSTISYHGSHISYHDSVHHRFTISRDNSKNTLYLQMNSLRAEDTAVYYCARIHHDPMDVWGQGTLVTVSS VL: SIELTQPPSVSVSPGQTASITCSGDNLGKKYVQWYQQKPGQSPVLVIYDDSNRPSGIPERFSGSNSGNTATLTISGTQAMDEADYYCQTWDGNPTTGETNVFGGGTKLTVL , and I need its recorded koff.
0.0841

I have this binder here, PaB670076 Fab (Fab, V domains shown, Fab; also called ZZ1NHH-F09) VH: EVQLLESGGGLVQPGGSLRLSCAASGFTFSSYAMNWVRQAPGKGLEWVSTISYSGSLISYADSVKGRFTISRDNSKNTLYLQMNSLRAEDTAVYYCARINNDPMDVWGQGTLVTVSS VL: SIELTQPPSVSVSPGQTASITCSGDNLGKKYVQWYQQKPGQSPVLVIYDDSNRPSGIPERFSGSNSGNTATLTISGTQAMDEADYYCHTWDHHHTTGEHNVFGGGTKLTVL , and I need its recorded koff.
0.051

meta.source: patent US20180305450A1
